test: human hepatoma cell viability loss – ATP luminescence, cytotoxicity control for P. falciparum antimalarial project, primary screen (AID 2303); conditions: HepG2 viability, 24-48 h, at 10 µM, hits give high values
Param label: returns Condition met when inhibition < 20%, returns Condition not met otherwise, including exact equality.

COMPOUND | CLASS ASSIGNMENT
COc1cc(Cc2cnc(N)nc2N)ccc1OCc1ccc(-c2csnn2)cc1 | Condition not met

Task: Does the reported inhibition of O=C(Nc1cccc(-c2cccc(-c3nc4ccc(C(F)(F)F)cc4[nH]3)c2)c1)c1ccncc1 stay below 20%?
Result: Condition not met

Task: Does the reported inhibition of C[C@@H](N)C#Cc1cc2c(Nc3ccc(OCc4cccc(F)c4)c(Cl)c3)ncnc2s1 stay below 20%?
Result: Condition met

Task: Does the reported inhibition of CC(=NNC(=S)NC(C)(C)C)c1ccccn1 stay below 20%?
Result: Condition not met

Task: Does the reported inhibition of CCN(CC)C(=NCCCCCCN=C(NC(N)=NCc1ccc(Cl)cc1Cl)N(CC)CC)NC(N)=NCc1ccc(Cl)cc1Cl stay below 20%?
Result: Condition met
